List of pH Range where Protein is >80% detected as Soluble and A650 <1 OD: High values.
Experiment: pH solubility
Assay type: physicochemical
Details: upper pH
# respond with the number and nothing more

Which pH Range where Protein is >80% detected as Soluble and A650 <1 OD: High is reported for this molecule? SEQID-00226: nutritive polypeptide (protein, listed as Bos taurus) QLQALQAQLTDTKKKVDDDLGTIENLEEAKKKLLKDVEVLSQRLEEKALAYDKLEKTKTRLQQELDDLLVDLDHQRQIVSNLEKKQKKFDQLLAEEKNIS 9.1

Also need SEQID-00241: nutritive polypeptide (protein, listed as Bos taurus) SELKKDIDDLELTLAKVEKEKHATENKVKNLTEEMAGLDETIAKLTKEKKALQEAHQQTLDDLQAEEDKVNTLTKAKTKLEQQVDDLEGSLEQEKKLRMDLERAKRKLEGDLKLA , thanks. 9.1
